- STUDY_SYSTEM: Amine oxidase [flavin-containing] A (Homo sapiens, UniProt P21397); note: assay procedure not described here
- Sequence (P21397 whole entry): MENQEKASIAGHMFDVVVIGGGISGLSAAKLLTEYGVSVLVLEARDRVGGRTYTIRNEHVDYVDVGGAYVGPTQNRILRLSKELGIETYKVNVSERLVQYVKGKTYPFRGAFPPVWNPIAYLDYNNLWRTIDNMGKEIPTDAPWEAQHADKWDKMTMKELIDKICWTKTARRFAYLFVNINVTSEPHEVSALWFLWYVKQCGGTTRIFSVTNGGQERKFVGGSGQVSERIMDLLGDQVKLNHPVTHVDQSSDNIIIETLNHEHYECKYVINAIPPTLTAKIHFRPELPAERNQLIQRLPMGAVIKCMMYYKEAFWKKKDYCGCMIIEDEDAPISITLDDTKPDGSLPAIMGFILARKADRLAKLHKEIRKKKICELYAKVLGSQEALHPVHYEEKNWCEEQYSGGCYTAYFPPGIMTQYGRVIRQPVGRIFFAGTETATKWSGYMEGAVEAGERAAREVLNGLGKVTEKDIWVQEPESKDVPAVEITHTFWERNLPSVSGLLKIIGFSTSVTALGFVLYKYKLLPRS
- Type: functional
MEASURED_QUANTITY: AC50

Use the examples below as a reference point.
>>> df
                                   compound  observed
0              C[C@H](N)[C@H](O)c1cccc(O)c1   > 10 µM
1  C#C[C@]1(O)CC[C@H]2[C@@H]3CCC4=Cc5oncc5C[C@]4(C)[C@H]3CC[C@@]21C   > 10 µM
2  Cc1nc([N+](=O)[O-])cn1-c1ccc([N+](=O)[O-])cc1   > 30 µM
3  CCCN1C[C@H](CSC)C[C@@H]2c3cccc4[nH]cc(c34)C[C@H]21 [PERGOLIDE]   > 30 µM

Continue with the compound presented below.
Query: # input compound: `C[C@H]1CNCCc2ccc(Cl)cc21` ; wanted: its AC50
Reply: > 30 µM
